B1: LINE1-full (parent)
chain: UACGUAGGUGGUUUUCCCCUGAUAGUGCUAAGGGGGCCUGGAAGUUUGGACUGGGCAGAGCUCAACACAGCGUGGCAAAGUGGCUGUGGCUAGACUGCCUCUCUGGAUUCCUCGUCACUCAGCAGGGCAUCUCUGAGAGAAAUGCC

Variants of: B1
Assay comment: self-cleavage, relative activity (ratio to wild type); higher = more cleavage; in vitro, sequencing; the parent is a self-cleaving ribozyme
Provide the recorded self-cleavage for the entries that follow.
One number for each entry.

Below, 5 variants whose answers are already recorded.
- U47C U81G: 1.13
- U13A C51A: 0.75
- U52A A64U: 0.46
- U132C A141U: 0.63
- U9A U100A: 0.72

Take each entry in turn and give its self-cleavage.
1. C71G A140U
2. C61A A129U

## Output
0.53
0.03

// input: 2 variants below; output: self-cleavage for each
1. U45C U87C
2. C131A G135A

## Output
[0.23, 1.55]

Hi there! I need self-cleavage for each item below, if you can.
1. U45C U87A
2. U62C U73A
3. A43G A78C
4. C98G
5. A6U A79G
6. U29A A50G

## Output
1: 0.09; 2: 0.03; 3: 1.74; 4: 0.13; 5: 0.8; 6: 0.51

Hi there! I need self-cleavage for each item below, if you can.
1. U52A U134A
2. U14C U85A
3. A2U C113A
4. A6G A107G
5. U112A A129G
6. A24G A43U
7. U87A A117G

## Output
[1.04, 0.08, 0.63, 0.74, 0.98, 1.54, 0.09]
